Measured values drawn from the Immune Epitope Database (IEDB) for this set.

- target_desc: HLA-B*08:02
- assay_procedure: IEDB peptide-MHC binding, purified MHC/direct/fluorescence; filed as Kd, often an IC50 or EC50 that approximates it; bounds were set here for any values at or beyond the usual limits of such assays
- experimental_conditions: source organism: Mycobacterium tuberculosis str. Haarlem
test_readout: Kd

KVMVICYAY	≥ 20 µM

-- ask Record request: Kd value, item `RPAPATGAL`
-- reply ≥ 20 µM

---

- target_desc: HLA-A*26:01
- assay_procedure: IEDB peptide-MHC binding, purified MHC/competitive/radioactivity; filed as Kd, often an IC50 or EC50 that approximates it; bounds were set here for any values at or beyond the usual limits of such assays
- experimental_conditions: source organism: Mammarenavirus brazilense
test_readout: pKd
Numbers only, as −log10 of the molar value.

-- ask # returns recorded pKd (system: HLA-A*26:01) for `ELLGYCVSLF`
-- reply 6.50

---

- target_desc: HLA-B*40:01
- assay_procedure: IEDB peptide-MHC binding, purified MHC/competitive/radioactivity; filed as Kd, often an IC50 or EC50 that approximates it; bounds were set here for any values at or beyond the usual limits of such assays
- experimental_conditions: source organism: SARS coronavirus Tor2
test_readout: pKd
One number for each entry, as −log10 of the molar value.

Known results for sequences:
EEAALCTFL	6.76
SELAKGVAL	8.47
QELYSPLFL	6.99

Dear colleague, could you send me pKd for each of the items below? Thanks.
1. GETPIAYRNV
2. FEIKSAKKF
3. REVSTAAVT
4. VEAVMYMGTL
5. REVLSDREL

-- reply
1: 5.78; 2: 5.77; 3: 6.95; 4: 7.65; 5: 7.81

---

- target_desc: HLA-B*40:01
- assay_procedure: IEDB peptide-MHC binding, purified MHC/direct/fluorescence; filed as Kd, often an IC50 or EC50 that approximates it; bounds were set here for any values at or beyond the usual limits of such assays
- experimental_conditions: source organism: Mycobacterium tuberculosis
pKd: −log10 of the molar value.
Provide the recorded pKd for the entries that follow.

Known results for sequences:
DECEFELAL	6.10
RPAPATGAL	≤ 4.70

Dear colleague, could you send me pKd for each of the items below? Thanks.
1. KVMVICYAY
2. YPACEAIGL

-- reply
["≤ 4.70", "≤ 4.70"]

---

- target_desc: HLA-B*39:01
- assay_procedure: IEDB peptide-MHC binding, purified MHC/competitive/fluorescence; filed as Kd, often an IC50 or EC50 that approximates it; bounds were set here for any values at or beyond the usual limits of such assays
- experimental_conditions: source organism: Listeria monocytogenes EGD-e
pKd: −log10 of the molar value.
test_readout: pKd

-- ask # returns recorded pKd (system: HLA-B*39:01) for `LAIVTTPLV`
-- reply ≤ 4.70

---

Provide the recorded Kd for the entries that follow.
- target_desc: HLA-A*03:01
- assay_procedure: IEDB peptide-MHC binding, purified MHC/competitive/radioactivity; filed as Kd, often an IC50 or EC50 that approximates it; bounds were set here for any values at or beyond the usual limits of such assays
- experimental_conditions: source organism: Dengue virus 2 Jamaica/1409/1983
Numbers only, in nM.

Known results for sequences:
ILKRWGTIKK	47.4
ALRGLPIRY	52.8

Switching to the query record.
-- ask Record request: Kd value, item `LISYGGGWK`
-- reply 338
